# TARGET OR SYSTEM: UniProt:P15538
# Sequence (P15538 whole entry): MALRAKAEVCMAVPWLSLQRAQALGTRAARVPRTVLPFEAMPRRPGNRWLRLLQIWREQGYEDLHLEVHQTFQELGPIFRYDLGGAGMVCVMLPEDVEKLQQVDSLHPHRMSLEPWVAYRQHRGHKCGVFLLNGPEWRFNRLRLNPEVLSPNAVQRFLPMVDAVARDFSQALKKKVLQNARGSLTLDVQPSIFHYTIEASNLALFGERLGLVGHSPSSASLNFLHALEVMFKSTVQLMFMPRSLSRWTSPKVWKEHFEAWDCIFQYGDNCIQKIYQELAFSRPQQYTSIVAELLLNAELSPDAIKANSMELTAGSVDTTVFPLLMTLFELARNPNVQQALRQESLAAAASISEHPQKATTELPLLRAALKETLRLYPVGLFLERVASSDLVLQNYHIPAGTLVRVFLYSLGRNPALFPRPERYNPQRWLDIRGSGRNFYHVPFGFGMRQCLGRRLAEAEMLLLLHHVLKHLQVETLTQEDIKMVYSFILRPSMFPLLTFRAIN
# PROTOCOL DESCRIPTION: Inhibition of CYP11B1 […] cells using [3H]-11-deoxycorticosterone as substrate incubated for 1 hr prior to substrate addition measured after 25 mins by HPLC analysis
# Format: cell-based
# RUN CONDITIONS: human, V79MZ cells expressing CYP11B1, probe [3H]-11-deoxycorticosterone
Provide the reported IC50 at 25 min of each item.

Q) Need IC50 at 25 min of O=C1CSc2cc(-c3cccnc3)ccc2N1 , thanks.
A) 0.525 µM

Q) Need IC50 at 25 min of O=C1CCc2cc(-c3cccnc3)ccc2N1 , thanks.
A) 6.75 µM
